biological target: Fc-fused Cynomolgus BCMA (ACRO Biosystems, Cat. #: BCA-C5253) (cynomolgus); assay: SPR (BIAcore T200) affinity ranking; crude sdAb captured via tag, antigen at 100 nM
reported-endpoint: koff (s⁻¹)
Give just the number in s⁻¹; leave the unit off.

[[record]]
binder = "anti-BCMA sdAb BCMA10 (VHH, part only, affinity tag) VHH: QVQLAESGGGLVQPGGSLRLSCAGSGFTFSSYDMNWVRQAPGKGLERVSTTFNGDDGTNYADSVLGRFTASRDKAKNTLYLQMNSLKTEDTAVYYCAAAVPGVDWYDTTRYKYWGQGTQVTVSS"
reported_endpoint = "koff"
readout_value = 0.04

[[record]]
binder = "anti-BCMA sdAb BCMA12 (VHH, part only, affinity tag) VHH: QVHLVESGGGSVQAGGSLRLSCKSSGATYSSNCMAWFRQTPGKEREGVATIDLASHGTYYADSVKGRFTISRDNAKNTMYLQMSGLRPEDTALYYCAATSWWPCTTFNGGYASWGQGTQVTVSS"
reported_endpoint = "koff"
readout_value = 0.004


Please give measured koff of the following entry: anti-BCMA sdAb BCMA11 (VHH, part only, affinity tag) VHH: QVQLVESGGGVVQPGGSLRLSCAASGFAFSNYAMTWGRQAPGQRLEWVSTIDSGGGSTTYSDSVKGRFTISRDNAKNTLYLQLNNLKSEDTAVYYCSENVDCNGDYCYRANYWGQGTQVTVSS
0.007

Query koff for anti-BCMA sdAb BCMA13 (VHH, part only, affinity tag) VHH: QVHLVESGGGSVQAGGSLRLSCKASGAIYDTNCMAWFRQTPGKEREGVATIDLGNPITYYADSVKGRFTISRDNAKNTMYLQMNSLKPEDTAMYYCAATSWWPCPANNVGYANWGQGTQVTVSS
0.018

Report measured koff; entry is anti-BCMA sdAb BCMA9 (VHH, part only, affinity tag) VHH: QVQLVESGGGSVQAGGSLRLSCKSSGAPYSSNCMAWFRQTPGKGREGVATIDLASHDTYYADSVKGRFTISRDNAKNTMYLQMNSLKPEDTAMYYCAATSWWPCTTFNGGYANWGQGTQVTVSS
0.0015

Read the entry anti-BCMA sdAb BCMA8 (VHH, part only, affinity tag) VHH: QVQLVESGGGSVQAGGSLRLSCAASGGTRSWNYMAWFRQAPGKEREDVAIIDNVGSTRYADSVKGRFTISQDTAQNTLYLQMNSLKPEDTAMYYCAARVSWCEDPPCGFDYWGQGTQVTVSS and write its reported koff.
560

Give me measured koff, please, for this binder: anti-BCMA sdAb BCMA1 (VHH, part only, affinity tag) VHH: QVQLVESGGGSVQAGGSLRLSCKASGAIYDTNCMAWFRQTPGKEREGVATIDLGNPITYYADSVKGRFTISRDNAKNTMYLQMNSLEPEDTAMYYCAATSWWPCTTFNAGYANWGQGTQVTVSS
0.00043

Hello, please tell me recorded koff for this one: anti-BCMA sdAb BCMA6 (VHH, part only, affinity tag) VHH: QMQLVESGGGSVQAGGSLRLSCTASGYTFDDSAMGWYRQAPGNECELVSSISSDGSTYYSDSVKGRFTISQDNAKNTMYLQMNSLKPEDTAVYSCAASSGEDGGSWSTPCHFFGYWGQGTQVTVSS
0.00091

Output measured koff for this item: anti-BCMA sdAb BCMA7 (VHH, part only, affinity tag) VHH: QVHLMESGGGSVQSGGSLRLSCAASGYTYSSYCMAWFRQAPGKEREGVAAIASDGSTYYTDSVKGRFTISQDNAKNTLYLQMNSLKPEDTAMYYCGADPVGCSWPDYWGQGTQVTVSS
0.056
